Here the recorded pIC50 is given for each entry.
molecular target: kinases (kinome) (Homo sapiens, UniProt Q9H0K1); construct: determined in kinobeads assays with mass spectrometry detection of kinases as described previously; endogenous in cells; assay: kinobeads assay with mass spectrometry detection of kinases (kinase selectivity profile); details: QIK (CAMK), IPI00465291
Sequence (Q9H0K1 whole entry): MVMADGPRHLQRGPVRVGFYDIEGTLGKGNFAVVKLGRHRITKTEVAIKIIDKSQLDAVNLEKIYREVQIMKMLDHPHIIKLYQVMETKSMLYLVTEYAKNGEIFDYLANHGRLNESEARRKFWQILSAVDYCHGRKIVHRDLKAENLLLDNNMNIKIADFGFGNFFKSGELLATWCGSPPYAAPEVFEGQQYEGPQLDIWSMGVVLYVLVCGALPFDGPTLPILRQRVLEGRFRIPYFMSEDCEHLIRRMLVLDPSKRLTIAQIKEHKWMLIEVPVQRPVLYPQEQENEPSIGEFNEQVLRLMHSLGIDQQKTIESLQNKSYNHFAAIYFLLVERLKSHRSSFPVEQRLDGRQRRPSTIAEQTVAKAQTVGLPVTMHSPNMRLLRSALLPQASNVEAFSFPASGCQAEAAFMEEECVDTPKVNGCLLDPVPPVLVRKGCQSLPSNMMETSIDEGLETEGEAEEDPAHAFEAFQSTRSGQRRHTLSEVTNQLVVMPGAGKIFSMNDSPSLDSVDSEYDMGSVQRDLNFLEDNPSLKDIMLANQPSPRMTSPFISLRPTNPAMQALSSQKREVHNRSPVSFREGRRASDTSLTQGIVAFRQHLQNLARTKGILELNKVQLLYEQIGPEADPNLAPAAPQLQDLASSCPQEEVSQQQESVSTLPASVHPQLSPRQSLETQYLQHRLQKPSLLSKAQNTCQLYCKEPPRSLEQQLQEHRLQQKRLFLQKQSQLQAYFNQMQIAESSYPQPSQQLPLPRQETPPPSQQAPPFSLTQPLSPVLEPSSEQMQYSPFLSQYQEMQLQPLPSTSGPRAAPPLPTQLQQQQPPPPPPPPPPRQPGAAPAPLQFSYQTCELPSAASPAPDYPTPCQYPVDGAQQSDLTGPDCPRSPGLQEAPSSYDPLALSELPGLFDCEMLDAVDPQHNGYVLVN
pIC50: −log10 of the molar value.

Some solved cases for reference:
C[C@H]1COCCN1c1cc(-c2ccccc2S(C)(=O)=O)nc(-c2ccc(NC(=O)NC3CC3)cc2)n1 < 5.00
C[C@H]1COCCN1c1nc(-c2ccc(NC(=O)N[C@H]3CCC[C@@H]3O)cc2)cc(-c2cc(F)ccc2S(C)(=O)=O)n1 < 5.00
CCNC(=O)Nc1ccc(-c2cc(-c3ccccc3C#N)nc(N3CCOC[C@@H]3C)n2)cc1 < 5.00
C[C@H]1COCCN1c1nc(-c2ccc(NC(=O)NC3CC3)cc2)cc(-c2cc(F)ccc2S(C)(=O)=O)n1 < 5.00
C[C@H]1COCCN1c1nc(-c2ccc(NC(=O)NC3CC3)cc2)cc(-c2ccccc2S(C)(=O)=O)n1 < 5.00
C[C@H]1COCCN1c1nc(-c2ccc(NC(=O)NC3CC3)cc2)cc(-c2cccnc2S(C)(=O)=O)n1 < 5.00

Item: `C[C@H]1COCCN1c1cc(-c2ccccn2)nc(-c2ccc(NC(=O)NCCO)cc2)n1` Test system: kinases (kinome) (Homo sapiens, UniProt Q9H0K1) Read-out: pIC50 Value: ? < 5.00
